target.entity: T1, human TSLPR on Ba/F3-hTSLPR-hIL7Ra cells (human, UniProt Q9HC73 23-371)
T1 sequence (looked up): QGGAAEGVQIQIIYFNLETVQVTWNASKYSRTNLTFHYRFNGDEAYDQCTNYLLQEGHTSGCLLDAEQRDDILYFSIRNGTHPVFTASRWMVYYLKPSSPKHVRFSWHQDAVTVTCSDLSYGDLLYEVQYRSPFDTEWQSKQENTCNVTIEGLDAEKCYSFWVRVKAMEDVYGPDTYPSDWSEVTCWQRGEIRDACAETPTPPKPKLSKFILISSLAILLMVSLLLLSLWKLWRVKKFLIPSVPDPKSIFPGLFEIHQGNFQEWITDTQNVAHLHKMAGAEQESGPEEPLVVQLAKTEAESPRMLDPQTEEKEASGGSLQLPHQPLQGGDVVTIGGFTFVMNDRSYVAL
test.description: cell-based or functional assay
Readings of Avg IC50, Ba/F3-huTSLPR proliferation for the listed binders
Your answer should be a plain number; it is taken to be in µg/mL.

binder: mouse antibody 54A11 (antibody, mouse IgG2a, V domains shown, Mouse IgG2a/kappa from hybridoma; also called m54A11; LB55.54A11.3D6) VH: EVQLQQSGPELVKPRASVKISCKASGYSFTGYYIHWVKQSHVKSLEWIGRINPYNGATIYNPNFKDKASLTVDKSSSTAFMEVHSLTSEDSAVYYCARSYGYVNYFDYWGQGTTLTVSS VL: EIVLTQSPATLSVTPGDSVSLSCRASQSISNNLHWYHQKSHESPRLLIKFGFQSISGIPSRFSGSGSGTDFTLSINSVETEDFGMYFCQQTNSWLTFGAGTKLELKR
measured.attribute: Avg IC50, Ba/F3-huTSLPR proliferation
unit.descriptor: µg/mL
val: 0.178

binder: rat anti-human TSLPR antibody 18B3 (antibody, V domains shown, Rat monoclonal antibody; also called r18B3; LB1.18B3) VH: EVQLVESGGGLVQPGRSLRLSCVASGFTFNNYWMTWVRQAPGKGLEWVASITDTSGRTYYPDSVKGRFTISRDHAKSTLYLQMNSLRPEDTATYYCTKTLGGIPRDWGQGVMVTVSS VL: NIQLTQSPSLLSASVGDRVTLSCKGSQNINNYLAWYQQKLGEAPKLLIFKTNILQTGIPLRFSGSGSGTDYTLTISSLHCEDLATYYCYQFNNGFTFGPGTKLELKR
measured.attribute: Avg IC50, Ba/F3-huTSLPR proliferation
unit.descriptor: µg/mL
val: 0.304

Bench note: what Avg IC50, Ba/F3-huTSLPR proliferation did mouse antibody 4G8 (antibody, mouse IgG1, V domains shown, Mouse IgG1/kappa from hybridoma; also called m4G8; LB55.4G8.2A6) VH: QVQLKQSGPGLVQPSQSLSITCTVSGFSLTIYGLHWVRQSPGKGLEWLGVIWRGGSTDYNAAFMSRLRITKDNSKSQVFFKMDSLQADDTAIYYCAKPYYDYDGNWYFDVWGAGTTVTVSS VL: DIVMTQSQKFMSTSVGDRVSVTCKASQNVGTNVAWYQKKSGQSPKPLIYSASSHCSEVPDRFTGSGSGTDFTLTINNVQSEDLAEYFCQQYNRYPLTFGTGTKLEVRR show? 0.262
